src = paper PMC10397247

testTarget: T1, 4H3974-bA
T1 chain: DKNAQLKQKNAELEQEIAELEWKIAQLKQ
assayComment: two-hybrid library CCNG1;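 also: natural log of median RNA to DNA barcode read ratio; higher means stronger binding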
// classify: if (interaction score < -0.3) True else False

Previously resolved entries follow.
{"binder": "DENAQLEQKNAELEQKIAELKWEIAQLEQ [4H1449-bA]", "answerLabel": "False"}
{"binder": "DENAQLEQKIAELKQEIAELKWKNAQLEQ [4H1359-bA]", "answerLabel": "False"}
{"binder": "DENAQLKQKIAELKQKIAELKWENAQLEQ [4H1899-bA]", "answerLabel": "True"}

Shifting focus to the binder that follows.
Quick check: interaction score of DENAQLKQKIAELEQEIAELKWENAQLKQ [4H1804-bA] under -0.3? True
